# TARGET_ENTITY: T1, human PVRIG-his (AcroBiosystems, Cat NO. PVG-H52H4) (human, UniProt Q6DKI7 41-171, limits assumed)
# T1 construct: also called human PVRIG protein
# T1 sequence (looked up): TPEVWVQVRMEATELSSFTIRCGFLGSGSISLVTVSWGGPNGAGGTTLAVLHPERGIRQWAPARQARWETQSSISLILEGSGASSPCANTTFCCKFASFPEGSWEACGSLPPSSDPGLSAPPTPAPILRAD
# PROCEDURE_TEXT: SPR (BIAcore), antibody captured on Protein A chip, human PVRIG-His analyte
Listing of recorded pKd by entry.
For clarity, pKd is expressed as the negative log10 of concentration in mol/L.

Some entries whose results are on file:
BINDER	pKd
PVRIG-A118-H6 (Fc fusion, humanized variant of PVRIG-A118; also called A118.VH6; not shown: constant part not restated for the humanized forms; parents are VHH-hinge-CH2-CH3 of human IgG1; detected by anti-human) EVQLVESGGGLVQPGGSLRLSCAASETYFDLYVMGWYRQAPGKDRELVATITYTGSIKIVDSVKGRFTISRGDAKNSLYLQMNSLRAEDTAVYYCNADPSGLGRKVYWGQGTMVTVSS	8.96
PVRIG-A105-H1 (Fc fusion, humanized variant of PVRIG-A105; also called A105.VH1; not shown: constant part not restated for the humanized forms; parents are VHH-hinge-CH2-CH3 of human IgG1; detected by anti-human) EVQLVESGGGLVQPGGSLRLSCAASGRTFDRHTMSWFRQAPGKEREFVATASRIPGDTYYVDSVKGRFTISRDNAKNSLYLQMNSLRAEDTAVYYCAATSAYCSEVDCYEKGSWYDNWGQGTMVTVSS	9.03
PVRIG-A50-H1a (Fc fusion, humanized variant of PVRIG-A50; also called A50.VH1a; not shown: constant part not restated for the humanized forms; parents are VHH-hinge-CH2-CH3 of human IgG1; detected by anti-human) EVQLVESGGGLVQPGGSLRLSCAASGFTFSYYDMSWVRQAPGKGLEWVSTINSDGGRTSYVDSVKGRFTISRDNSKNTLYLQMNSLRAEDTAVYYCVEGDPHNFGLENLSLRDFGSWGQGTMVTVSS	10.35

Would you kindly look at the next entry?
Inquiry: What value of pKd has been reported for the following binder? PVRIG-A118 (Fc fusion, heavy chain antibody VHH-hinge-CH2-CH3, human IgG1 constant part; not shown: human IgG1 hinge-CH2-CH3) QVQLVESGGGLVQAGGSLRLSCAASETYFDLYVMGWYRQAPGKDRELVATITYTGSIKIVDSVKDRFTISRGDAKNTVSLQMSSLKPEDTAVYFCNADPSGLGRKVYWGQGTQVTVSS
Reply text: 9.32

Recorded values, source patent US20240343803A1.
